# merged literature set: pIC50 with HPK1 (Homo sapiens (Human), UniProt Q92918)
# Sequence (Q92918 whole entry): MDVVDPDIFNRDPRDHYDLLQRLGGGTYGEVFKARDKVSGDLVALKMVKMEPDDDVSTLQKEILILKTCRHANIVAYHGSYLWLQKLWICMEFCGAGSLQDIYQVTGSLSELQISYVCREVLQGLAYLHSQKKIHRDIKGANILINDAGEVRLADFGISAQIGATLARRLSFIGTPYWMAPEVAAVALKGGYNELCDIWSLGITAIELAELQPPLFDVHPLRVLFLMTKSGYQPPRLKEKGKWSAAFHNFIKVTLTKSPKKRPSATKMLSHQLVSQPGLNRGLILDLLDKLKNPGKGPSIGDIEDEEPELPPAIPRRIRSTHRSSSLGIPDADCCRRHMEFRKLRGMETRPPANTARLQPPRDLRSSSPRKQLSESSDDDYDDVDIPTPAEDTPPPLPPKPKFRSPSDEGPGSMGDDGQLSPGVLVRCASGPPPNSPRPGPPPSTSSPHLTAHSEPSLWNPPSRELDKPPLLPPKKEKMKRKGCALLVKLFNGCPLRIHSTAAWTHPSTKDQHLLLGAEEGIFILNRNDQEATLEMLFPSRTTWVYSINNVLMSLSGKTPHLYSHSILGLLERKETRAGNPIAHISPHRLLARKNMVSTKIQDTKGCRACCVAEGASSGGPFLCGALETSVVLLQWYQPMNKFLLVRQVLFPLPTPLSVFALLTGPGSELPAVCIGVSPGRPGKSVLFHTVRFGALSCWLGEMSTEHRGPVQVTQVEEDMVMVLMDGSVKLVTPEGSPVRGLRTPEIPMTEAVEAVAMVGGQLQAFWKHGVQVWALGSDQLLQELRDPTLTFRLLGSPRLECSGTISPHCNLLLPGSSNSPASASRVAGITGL
pIC50: −log10 of the molar value.

1. CCc1c[nH]c2ncc(-c3cccc(N4CCN(C(=O)CCCCCCCOc5cccc6c5C(=O)N(C5CCC(=O)NC5=O)C6=O)CC4=O)c3)c(Cl)c12 (stereo not shown) ... 7.00 to 8.00
2. Cn1cncc1-c1cnc(Nc2ccc(N3CCC[C@@H](C(C)(C)O)C3)cc2)c2c1CNC2=O ... < 7.00

Take each entry in turn and give its pIC50.
1. CCc1c[nH]c2ncc(-c3cccc(N4CCN(C(=O)COC)CC4=O)c3)c(Cl)c12
2. Cn1cncc1-c1cnc(Nc2ccc(N3CCNCC3)cc2)c2c1CNC2=O

1: ≥ 8.00; 2: < 7.00
